Tested on: SN12C renal
Experiment: NCI tumour cell line growth inhibition, 48 h; in the data active = GI50 below about 0.43 µM; inactive = the rest
API: response.call in active, inactive

Exercise: Just curious, what result did CC(=O)Oc1ccccc1C(=O)N=C1[Se]CCCN1C(=O)c1ccccc1OC(C)=O get here?
Key: inactive

Exercise: Just curious, what result did O=C(Nc1cccc(Cl)c1Cl)c1cccc(NC2=C(Cl)C(=O)N(Cc3ccccc3)C2=O)c1 get here?
Key: inactive

Exercise: Just curious, what result did CCCCCc1c(C)[nH]c(/C=C2\N=C(c3ccc[nH]3)C=C2CC)c1C get here?
Key: active

====

System: SK-MEL-2 melanoma
Assay: NCI tumour cell line growth inhibition, 48 h
measure: TGI

Some compounds with known TGI results, for comparison:
>  <compound>
CC(C)=CCS(=O)c1ccccc1NC1=CC(=O)CC(C)(C)C1 (stereo unspecified)

>  <TGI>
> 100 µM

$$$$
>  <compound>
COc1ccccc1/C=C/c1cnccn1

>  <TGI>
> 10 µM

$$$$
>  <compound>
O=C1NC(=O)C(CCO)(c2ccccc2)C(=O)N1

>  <TGI>
> 100 µM

$$$$

The compound Nc1ccc(C(=O)NN2C(=O)C(Cl)C2c2ccccc2Cl)cc1 (stereo unspecified) showed TGI equal to 24.5 µM

The compound CCN(CC)c1ccc2cc(-c3nnc(-c4ccccc4)o3)c(=O)oc2c1 showed TGI equal to > 87.2 µM

The compound O=C(O)c1ccc(NNc2cc(=O)[nH]c(=O)[nH]2)cc1 showed TGI equal to > 100 µM

FYI, the data here is from PubChem BioAssay (NCI).
